- Assay Explanation: yeast display, Sf9 membrane polyspecificity reagent, FACS + sequencing; frameworks hold sequencing errors
Recorded Metric: polyreactivity (PSR sort gate)

Example cases with answers are listed next.
Sequence Record: QVQLVESGGGLVQAGGSLRLSCAASGRTFWSYAMGWYRQAPGKERELVATITGRGGSTYYADSVKGRFTISRDNAKNTVYLQMNSLKPEDTAVYYCARSQYSRSPSRMGYWGQGTQVTVSS
polyreactivity (PSR sort gate): high polyreactivity
//
Sequence Record: QVHLVESGRGLVQSGGSLRLSCADSGSTFATNAMGWYRQAPGKERELVAAITSRGGTYYADSVKRRFTISRDKAKNTVYLQMNSLKPEDTAVYYCNAVSRYAFDYCGQGTQVTVSS
polyreactivity (PSR sort gate): high polyreactivity
//
Sequence Record: QVQLVESGGGLVQAGGSLRLSCAASGRIFVNYAMGWYRQAPGKERELDAAITSDGSTSYADSVKGRFTISRDNAKNTVYLQMNSLKPEDTAVYYCAKDFFEHSPVSHTYSSSKYDYWGQGTQVTVSS
polyreactivity (PSR sort gate): low polyreactivity
//
Sequence Record: QVQLVESGGGLVQAGGSLRLSCAASGSTFTGYDMGWYRQAPGKERELVAAISISGGRTFYADSVKGRFTISRDNAKNTVYLQMNSLKPEDTAVYYCAAYQRGSKYSFDYWGQGTQVTVSS
polyreactivity (PSR sort gate): high polyreactivity
//
Sequence Record: QVQLVESGGGLVQAGGSLRLSCAASGRIFAYNTMGWSRQAPGKERELVAVITSGGSTNYADSVKGRFTISRDNAKNTVYLQMNSLKPEDTAVYYCAKRPYCRSGGSRYDYWGQGTQVTVSS
polyreactivity (PSR sort gate): high polyreactivity
//
Sequence Record: QVQLVESGGGLVQAGGSLRLSCAASGIILRRYAMGWYRQAPGKERELVAAISSRGGSTYYADSVKGRFTISRDNAKNTVYLQMNSLKPEDTAVYYCANRPYGRSGGSRYDYWGQGTQVTVSS
polyreactivity (PSR sort gate): high polyreactivity

As a next step, examine the sequence that follows.
Looking up `QVQLVESGGGLVQAGGSLRLSCAASGSTFGGYAMGWYRQAPGKERELVAGITISVGSTYYADSVKGRFTISRDNAKNTVYLQMNSLKPEDTAVYYCAADGLSWYNYWGQGTQVTVSS` , I found its polyreactivity (PSR sort gate) recorded as high polyreactivity

---

- Assay Explanation: yeast display, Sf9 membrane polyspecificity reagent, FACS + sequencing; frameworks hold sequencing errors
Recorded Metric: polyreactivity (PSR sort gate)

Example cases with answers are listed next.
Sequence Record: QVQLVESGGGLVQAGGSLRLSCAASGFIFYYYAMGWYRQAPGKERELVAAISSSGTSTYYADSVKGRFTISRDNAKYTVYLQMNSLKPEDTAVYYCAAYSSHREDYWGQGTQVTVSS
Recorded Measurement: high polyreactivity
--
Sequence Record: QVQLVESGGGLVQAGGSLRLSCAASGRTFYTYAMGWYRQAPGKESELVATIRWSGGSTRYADSVKGRFTISRDYAKNTVYLQMNSLKPEDTAVYYCAADNYYRRKYKYDYWGQGNQVTVSS
Recorded Measurement: high polyreactivity
--
Sequence Record: QVQLVESGGGLVQAGGSLRLSCAASGFIFATYVMGWYRQAPGKERELVAAISWSGSSTFYADSVKGRFTISRDNAKNTVYLQMNSLKPEDTAVYYCAALGDYVGNDYWGQGTQVTVSS
Recorded Measurement: high polyreactivity
--
Sequence Record: QVQLVESGGGLVQAGGSLRLSCAASGGNFVSYAMGWYRQAPGKERDLVARINSVDGTNYADSVKGRFTISRDNAKNTVYLQMNSLKPEDTAVYYCATGGYYSAIVYGGYDYWGQGTQVTVSS
Recorded Measurement: low polyreactivity

Looking up `QVQLVESGGGLVQAGGSLRLSCAASGGWYRQAPGKERELVAAISWRDSSTYYADSVKGRFTISRDNAKNTVYLQMNSLKPEDTAVYYCAVRAYPWPEYYYWGQGTQVTVSS` , I found its polyreactivity (PSR sort gate) recorded as low polyreactivity
